Cited source: the supplement of paper PMC10201428

Test system: VchCAST RNA-guided transposition machinery (E. coli BL21(DE3) host, lacZ target)
Protocol description: relative integration efficiency (T-RL orientation) vs wild-type transposon end (log2 (normalized fold change)); transposon end mutated: right end (5 bp flank + 75 bp right end); higher = more efficient transposition
Value type: relative integration efficiency (log2)
// no unit, no text: just the number

Example entries begin here.
Lab note: need relative integration efficiency (log2) with VchCAST RNA-guided transposition machinery (E. coli BL21(DE3) host, lacZ target) for entry ACATTTGTTGATACAACCATATATTGATATCTCCAACCATATATTGATATCTCTCAGTGGGTATTTAACTATAACGCTCTGATCATAGTCAGACCAACATTGCTACGACCCGTATTCGCACCGACAC , please look it up.
-1.48

And what about the sequence ACATTTGTTGATACCACCATAAAATGATAATTCCACCCATAAATTGATAATTATCACACCCAATTTAACTATAACGCTCTGATCATAGTCAGACCAACATTGCTACGACCCGTATTCGCACCGACAC ?
-1.1

---
Lab note: need relative integration efficiency (log2) with VchCAST RNA-guided transposition machinery (E. coli BL21(DE3) host, lacZ target) for entry ACATTTGTTGATACAACCATAAAATGATAATTACACCCATAAATTGATACGGCGACACAAACGCCCGGTCGCGGTAAGAGGATCATAGTCAGACCAACATTGCTACGACCCGTATTCGCACCGACAC , please look it up.
-0.726

And what about the sequence ACATTTGTGGATACAACCATAAAATGATAATTACACCCATAAATTCATAATTATCACACCCAATTTAACTATAACGCTCTGATCATAGTCAGACCAACATTGCTACGACCCGTATTCGCACCGACAC ?
-1.9

And what about the sequence ACATTTGTTGATACAACCATAAAATGATAATTCACAAACGCCCGGTCGCCGGCGACACAAACGCCCGGTCGCGGTAAGAGGATCATAGTCAGACCAACATTGCTACGACCCGTATTCGCACCGACAC ?
-1.9
